assay: folding enthalpy; higher = less favourable; fluorescence melt of hairpins on a sequencing array, two-state fit; settings: sodium 0.088 M
What folding enthalpy was measured for each of the following?
One number for each entry, in kcal/mol.

Previously resolved entries follow.
INSERT INTO results (residue_string, quantitative_readout) VALUES
  ('GTAAGAGGAAACCCTTAC (((((.(....).)))))', -19.6),
  ('GCAAACCGAAAGGTCTGC (((.(((....))).)))', -29.8),
  ('GATCCCGACCGGGATC ((((((....))))))', -37.5),
  ('GATCACGTGAGTGATC ((((((....))))))', -28.4);

For the 5 sequences below, give their folding enthalpy values.
1. GATAGCGAAAGCTAGATC ((((((....)))..)))
2. GCATTAGGAAACTAGTGC (((.(((....))).)))
3. GTCTCACCGAAAGGTGAC (((..(((....))))))
4. GATGCGGGAAACTGCATC (((((.(....).)))))
5. GGTTGAACGAAAGTTACC (((..(((....))))))

1: -15.4; 2: -28.6; 3: -7.93; 4: -42.6; 5: -13.2

For the 3 sequences below, give their folding enthalpy values.
1. GCCTAGCCGAAAGGCGGC (((..(((....))))))
2. GATCGCGGAAACGCGGTC ((.((((....)))).))
3. GCATTGGCGAAAGCCTGC (((..(((....))))))

[-14.1, -22.8, -15.1]

###

What folding enthalpy was measured for each of the following?
assay: folding enthalpy; higher = less favourable; fluorescence melt of hairpins on a sequencing array, two-state fit; settings: sodium 0.088 M
Numbers only, in kcal/mol.

INSERT INTO assay_data (residue_string, quantitative_readout) VALUES
  ('GGGACCACGAAAGTGCCC (((..(((....))))))', -15.7),
  ('GATCGTCTTGACGATC ((((((....))))))', -35.9),
  ('GATCCAATTATGGATC ((((((....))))))', -36.5),
  ('GATCACCATAGTGATC ((((((....))))))', -42.2),
  ('GGTTACGAAAGTAACACC ((((((....)))..)))', -12.7);

For the next question, use this sequence.
I would be grateful if you could share the reported folding enthalpy for GATCCCGAGGGGATC ((((((...)))))) .
-42.5

###

What Tm was measured for each of the following?
assay: melting temperature; fluorescence melt of hairpins on a sequencing array, two-state fit, raised by 9.35 °C to match UV melts; details: sodium 0.088 M
Could you kindly put the unit after your number?

Previously resolved entries follow.
INSERT INTO measurements (residue_string, result) VALUES
  ('GGTATGCGAAAGCAGACC (((.(((....))).)))', '65.1 °C'),
  ('GCATTCGAAAGAAGTGC ((((((....))).)))', '40.2 °C'),
  ('GATCGGACCCCCGATC ((((((....))))))', '54.7 °C'),
  ('GGGGGCGAAAGCCTCCCC ((((((....)))..)))', '61.4 °C'),
  ('GATCGACTTATCGATC ((((((....))))))', '51 °C');

I would be grateful if you could share the reported Tm for GATCCTTGGAAGGATC ((((((....)))))) .
52.2 °C
